// reported IC50 per item
Target: Inhibitor of nuclear factor kappa-B kinase subunit beta (Homo sapiens, UniProt O14920)
Sequence (O14920 whole entry, the tested form may be a part): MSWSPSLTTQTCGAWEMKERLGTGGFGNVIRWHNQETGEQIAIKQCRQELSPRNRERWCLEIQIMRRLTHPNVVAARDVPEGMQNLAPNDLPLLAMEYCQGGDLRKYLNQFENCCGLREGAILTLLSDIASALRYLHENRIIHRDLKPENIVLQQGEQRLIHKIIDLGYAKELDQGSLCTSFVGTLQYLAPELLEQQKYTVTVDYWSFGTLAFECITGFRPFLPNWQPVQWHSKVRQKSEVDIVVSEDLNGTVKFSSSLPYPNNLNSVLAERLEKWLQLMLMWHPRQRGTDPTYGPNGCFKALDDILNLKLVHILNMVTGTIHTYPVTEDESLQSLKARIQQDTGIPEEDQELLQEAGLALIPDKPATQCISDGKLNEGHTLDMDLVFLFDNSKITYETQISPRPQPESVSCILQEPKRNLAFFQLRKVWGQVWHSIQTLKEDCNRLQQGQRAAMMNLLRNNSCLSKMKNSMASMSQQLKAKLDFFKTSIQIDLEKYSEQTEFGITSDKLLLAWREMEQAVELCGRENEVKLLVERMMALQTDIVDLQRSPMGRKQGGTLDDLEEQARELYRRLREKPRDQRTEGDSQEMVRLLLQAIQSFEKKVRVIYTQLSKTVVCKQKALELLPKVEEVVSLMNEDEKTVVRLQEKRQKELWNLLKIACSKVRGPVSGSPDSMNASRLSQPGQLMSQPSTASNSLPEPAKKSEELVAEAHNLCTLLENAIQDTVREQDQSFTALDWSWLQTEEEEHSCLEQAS
Test: Inhibition of IKK2-mediated phosphorylation of GST-IkappaBalpha fusion protein afterr 60 mins by fluorescence polarization assay
quantity_measured: IC50 (nM)

entry_smiles=CNC(=O)c1nc2c(nc(NC)c3ncn(C)c32)s1 quantity_measured=IC50 assay_value=15
entry_smiles=CNc1nc2c(nc(NC)c3ncn(C)c32)s1 quantity_measured=IC50 assay_value=920
entry_smiles=CCNC(=O)c1nc2c(nc(NC)c3ncn(C)c32)s1 quantity_measured=IC50 assay_value=15
entry_smiles=Cn1cnc2c(NCCN3CCCCC3)nc3sc(-c4ccc(F)cc4)nc3c21 quantity_measured=IC50 assay_value=56
entry_smiles=CNc1nc2sc(SC)nc2c2c1ncn2C quantity_measured=IC50 assay_value=28
entry_smiles=CNc1nc2cc(-c3ccccc3)nn2c2c1ncn2C quantity_measured=IC50 assay_value=34
entry_smiles=CNc1nc2sc(-c3cccc(CNC(C)=O)c3)nc2c2c1ncn2C quantity_measured=IC50 assay_value=22
entry_smiles=CC(=O)NCCNc1nc2sc(-c3ccc(F)cc3)nc2c2c1ncn2C quantity_measured=IC50 assay_value=33
